FYI, the data here is from paper PMC6723402.

- ASSAY PROCEDURE: DPPH· radical scavenging (antioxidant) assay
- RUN CONDITIONS: DPPH· scavenging at 100 μM, 30 min
Parameter: Antioxidant % Inhibition (100 μM). Scope: all listed entries.
QUANTITY: Antioxidant % Inhibition (100 μM) (%)

| COMPOUND | QUANTITY | MODIFIER | ASSAY VALUE |
| --- | --- | --- | --- |
| COC(=O)c1c(C)c(O)c(O)c(O)c1C=O | Antioxidant % Inhibition (100 μM) | = | 57 |
| Cc1c(O)cc(O)c(C(=O)OC[C@@H](O)[C@H](O)[C@H](O)CO)c1C [Compound 7, paeciloside A] | Antioxidant % Inhibition (100 μM) | < | 50 |
| O=C1O[C@H]([C@@H](O)CO)C(O)=C1O [Ascorbic acid, ascorbic acid, reference compound] | Antioxidant % Inhibition (100 μM) | = | 92 |
| CC(O)C1OCc2c(O)cccc21 (centres unmarked) | Antioxidant % Inhibition (100 μM) | < | 50 |
| CC1=C(C)C2(C)C(=O)C(O)(C1=O)C1(C)C(=O)C2(O)C(=O)C(C)=C1C | Antioxidant % Inhibition (100 μM) | < | 50 |
| Cc1c(O)c(O)c(O)c(C=O)c1-c1cc2c(C=O)c(C)c(O)c(O)c2o1 [Compound 8, epicoccolide B] | Antioxidant % Inhibition (100 μM) | = | 89 |
| Cc1c(O)c(O)c(O)c2c1COC2=O [Compound 5, epicoccone B] | Antioxidant % Inhibition (100 μM) | < | 50 |
| CC1=CC2C=C(C)C(C)C3C(CC(C)C)NC(=O)C23C(=O)C2C3OC(c4c(C)c(O)c(O)c(O)c43)C2C(=O)CCC1 (centres unmarked) | Antioxidant % Inhibition (100 μM) | = | 56 |
